Tested on: DMS-114
method: NCI tumour cell line growth inhibition, 48 h
Active and inactive are the calls of the source. Cut-off read from the data, not from the text of the source: active = GI50 up to about 1.1 µM and inactive = higher.
Outcomes: active, inactive

| compound | class |
| --- | --- |
| O/N=C/c1ncccc1C1OCCO1 | inactive |
| Cc1cc(N(CCC#N)CCC#N)ccc1/C=C1N=C(/C=C\c2ccccc2)N(c2ccc(C(=O)O)cc2)C\1=O | inactive |
| c1ccc(N2CCN(CCCN3CCc4c([nH]c5ccccc45)C3c3cccnc3)CC2)cc1 (stereo unspecified) | inactive |
| CCN(CC)c1ccc2c(c1)Oc1ccc(N(CC)CC)cc1C21Oc2ccccc2-c2c1c1ccccc1n2CC (stereo unspecified) | active |
| Cc1ccc(NC(=O)C(=O)Cc2cc[n+]([O-])cc2)cc1 | inactive |
| COc1ccc2n[se]nc2c1 | inactive |

====

# Lookup of reported GI50 keyed by entry
Test system: Hs-578T
method: NCI tumour cell line growth inhibition, 48 h
The source made the active and inactive calls. Cut-off read from the data, not from the text of the source: active = GI50 up to about 1.1 µM and inactive = higher.
observation.type: GI50

| compound | observation.type | measured |
| --- | --- | --- |
| Cc1cc(S(=O)(=O)/N=C(\NN)Nc2ccc(Cl)cc2)c(S)cc1Cl | GI50 | 1.17 µM (inactive) |
| CCOC(=O)C1(N)CCc2[nH][nH]c(=O)c2C1 (stereo not given) | GI50 | > 100 µM (inactive) |
| CCN(CC)C1Oc2cc3c(cc2C(c2ccc(OC)cc2)C1C)OCO3 (stereo not given) | GI50 | 18.7 µM (inactive) |
| CC12C(=O)OC(=O)C1(C)C1C=CC2O1 (stereo not given) | GI50 | 29.1 µM (inactive) |
| Cc1cn(CCCCC2=NCCCN2)c(=O)[nH]c1=O | GI50 | > 34.4 µM (inactive) |
| Cc1ccc(-c2nc(N/N=C/c3ccc(O)cc3)c3ccccc3n2)cc1 | GI50 | 35.7 µM (inactive) |
| COc1c(OC/C=C(\C)CCC=C(C)C)ccc2ccc(=O)oc12 | GI50 | 90.4 µM (inactive) |
| CC(=O)OCC1OC(NC(=S)Nn2c(=O)[nH]c3ccccc3c2=O)C(OC(C)=O)C(OC(C)=O)C1OC(C)=O (stereo not given) | GI50 | > 100 µM (inactive) |
| COc1cccc(-c2ccc3c4c2O[C@H]2C(=O)CC[C@@]5(O)[C@@H](C3)N(CC3CC3)CC[C@]425)c1 | GI50 | 12.3 µM (inactive) |
| CCOc1ccc(C(c2c(O)c3ccccc3oc2=O)c2c(O)c3ccccc3oc2=O)cc1 | GI50 | 37.6 µM (inactive) |

====

Items are presented alongside their recorded GI50.
Tested on: CCRF-CEM
method: NCI tumour cell line growth inhibition, 48 h
Activity calls are given as the source filed them. No stated cut-off is given here; in the data, active = GI50 up to about 1.1 µM and inactive = higher.

| molecule | GI50 |
| --- | --- |
| CCn1cnnc1-c1nsc2ccccc12 | > 100 µM (inactive) |
| CNC(=O)CN(CC(=O)O)C(=O)NC | > 100 µM (inactive) |
| c1nncn1C12C3C4C5C3C1C5C42 (stereo unspecified) | > 100 µM (inactive) |
| O=C1OCc2c1cc1cc3c(cc1c2-c1ccc2c(c1)OCO2)OCO3.O=C1OCc2cc3cc4c(cc3c(-c3ccc5c(c3)OCO5)c21)OCO4 | 3.34 µM (inactive) |
| C/C(=N/O)c1cccc(Nc2nc3ccccc3c3[nH]c4ccccc4c23)c1 | 2.39 µM (inactive) |
| NS(=O)(=O)c1ccc(NNc2c3ccccc3nc3c(C(=O)Nc4ccc(S(N)(=O)=O)cc4)cccc23)cc1 | 14.5 µM (inactive) |
| CC(C)(C)c1ccc(O)c(CN(Cc2c(O)ccc3ccccc23)C2CCCCC2)c1 | 13.9 µM (inactive) |
| N/N=c1\c2ccccc2c2ccc3c4ccccc4/c(=N\N)c3c12 | > 100 µM (inactive) |
| Oc1ccc(-c2nc3cc(F)ccc3s2)cc1 | 43.8 µM (inactive) |
| CN1C=C(C(N)=O)Cc2ccsc21 | > 100 µM (inactive) |
| O=C(N/C(=C\c1cc(Cl)ccc1Cl)c1nc2ccccc2[nH]1)c1ccccc1 | 25.9 µM (inactive) |
